Assay: Selectivity for HCV NS4A-tethered single chain NS3 serine protease over human neutrophil elastase
Classification by Ratio | ranges: bin 1: < 100; bin 2: ≥ 100 and < 300; bin 3: ≥ 300

Recorded results for 8 compounds are shown here.
Compound	Qualitative label
C=CCNC(=O)C(=O)C(CCC)NC(=O)[C@@H]1[C@@H]2[C@H](CN1C(=O)[C@@H](NC(=O)N[C@@H](CN1CCCCC1=O)C(C)(C)C)C1CCCCC1)C2(C)C (stereo not given in full)	bin 1
C=CCNC(=O)C(=O)C(CCC)NC(=O)[C@@H]1[C@@H]2[C@H](CN1C(=O)[C@@H](NC(=O)N[C@@H](CN1CCCC(C)(C)C1=O)C(C)(C)C)C(C)(C)C)C2(C)C (stereo not given in full)	bin 1
C=CCNC(=O)C(=O)C(CCC)NC(=O)[C@@H]1[C@@H]2[C@H](CN1C(=O)[C@@H](NC(=O)N[C@@H](CN1CCCCC1=O)C(C)(C)C)C(C)(C)C)C2(C)C (stereo not given in full)	bin 3
C=CCNC(=O)C(=O)C(CCC)NC(=O)[C@@H]1[C@@H]2[C@H](CN1C(=O)[C@@H](NC(=O)N[C@@H](CN1CCCNC1=O)C(C)(C)C)C(C)(C)C)C2(C)C (stereo not given in full)	bin 3
C=CCNC(=O)C(=O)C(CCC)NC(=O)[C@@H]1[C@@H]2[C@H](CN1C(=O)[C@@H](NC(=O)N[C@@H](CN1CCCCC1=O)C(C)(C)C)C1Cc3ccccc3C1)C2(C)C (stereo not given in full)	bin 1
C=CCNC(=O)C(=O)C(CCC)NC(=O)[C@@H]1[C@@H]2[C@H](CN1C(=O)[C@@H](NC(=O)N[C@@H](CN1Cc3ccccc3C1=O)C(C)(C)C)C(C)(C)C)C2(C)C (stereo not given in full)	bin 3
C=CCNC(=O)C(=O)C(CCC)NC(=O)[C@@H]1[C@@H]2[C@H](CN1C(=O)[C@@H](NC(=O)N[C@@H](CN1CCCC1=O)C(C)(C)C)C(C)(C)C)C2(C)C (stereo not given in full)	bin 1
C=CCNC(=O)C(=O)C(CCC)NC(=O)[C@@H]1[C@@H]2[C@H](CN1C(=O)[C@@H](NC(=O)N[C@@H](CN1CCC(C)(C)CC1=O)C(C)(C)C)C1CCCCC1)C2(C)C (stereo not given in full)	bin 1

Record C=CCNC(=O)C(=O)C(CCC)NC(=O)[C@@H]1[C@@H]2[C@H](CN1C(=O)[C@@H](NC(=O)N[C@@H](CN1CCC(C)(C)CC1=O)C(C)(C)C)C1Cc3ccccc3C1)C2(C)C (stereo not given in full) — which class?
bin 2

Record C=CCNC(=O)C(=O)C(CCC)NC(=O)[C@@H]1[C@@H]2[C@H](CN1C(=O)[C@@H](NC(=O)N[C@@H](CN1CCC(C)(C)CC1=O)C(C)(C)C)C(C)(C)C)C2(C)C (stereo not given in full) — which class?
bin 3

Record C=CCNC(=O)C(=O)C(CCC)NC(=O)[C@@H]1[C@@H]2[C@H](CN1C(=O)[C@@H](NC(=O)N[C@@H](CN(C)C(=O)C1CC1)C(C)(C)C)C(C)(C)C)C2(C)C (stereo not given in full) — which class?
bin 2

Record C=CCNC(=O)C(=O)C(CCCC)NC(=O)[C@@H]1[C@@H]2[C@H](CN1C(=O)[C@@H](NC(=O)N[C@@H](CN1CCC(C)(C)CC1=O)C(C)(C)C)C(C)(C)C)C2(C)C (stereo not given in full) — which class?
bin 3

Record C=CCNC(=O)C(=O)C(CCC)NC(=O)[C@@H]1[C@@H]2[C@H](CN1C(=O)[C@@H](NC(=O)N[C@@H](CN1Cc3ccccc3CC1=O)C(C)(C)C)C(C)(C)C)C2(C)C (stereo not given in full) — which class?
bin 2

Record C=CCNC(=O)C(=O)C(CC1CCC1)NC(=O)[C@@H]1[C@@H]2[C@H](CN1C(=O)[C@@H](NC(=O)N[C@@H](CN1CCC(C)(C)CC1=O)C(C)(C)C)C(C)(C)C)C2(C)C (stereo not given in full) — which class?
bin 3

Record C=CCNC(=O)C(=O)C(CC1CC1)NC(=O)[C@@H]1[C@@H]2[C@H](CN1C(=O)[C@@H](NC(=O)N[C@@H](CN1CCC(C)(C)CC1=O)C(C)(C)C)C(C)(C)C)C2(C)C (stereo not given in full) — which class?
bin 3

Record C=CCNC(=O)C(=O)C(CCC)NC(=O)[C@@H]1[C@@H]2[C@H](CN1C(=O)[C@@H](NC(=O)N[C@@H](CN1CC3CCC(C3)C1=O)C(C)(C)C)C(C)(C)C)C2(C)C (stereo not given in full) — which class?
bin 3
